- test.protocol: NCI Yeast Anticancer Drug Screen. Data for the bub3 strain (AID 167)
- condition: S. cerevisiae bub3 mutant strain, at 50.0 µM, hits give high values
- Protocol: Growth inhibition of yeast strains with defined genetic alterations is measured as a screen for potential anti-cancer activity. Selected strains with alterations in DNA damage repair or cell cycle control were exposed to compounds and growth inhibition was measured relative to vehicle treated controls. The strain used in this assay is bub3
About 79,000 compounds went through this panel and 15% of them were active in at least one assay; those are over-represented in the sample as a whole.
reported.endpoint: growth inhibition (%)
The answer is to be given in %; state only the numeric part.

Cc1cn(C2CC(O)C(CO)O2)c(=O)nc1NC1CCCCCCCCCCC1 (stereo not drawn): -5.5

Enquiry: # get_value(readout='growth inhibition', item= `COC(=O)c1ccc(C(=O)c2ccccc2)cc1` )
Return: 14.2
